experimentDescription: Selectivity index, ratio of CC50 for human U937 cells to EC50 for Leishmania panamensis M/HOM//87/UA140
Type: toxicity, cell-based, U-937
testSettings: read-out: Selectivity Index
quantityKind: selectivity ratio

> print(dat)
                                   molecule  experimentalresult
1  C=C(C)[C@H]1O[C@@H]1c1c(OC)ccc2ccc(=O)oc12 [PHEBALOSIN]                 1.5
2  C=C(C)[C@H]1O[C@@H]1c1c(OC[C@H]2OC2(C)C)ccc2ccc(=O)oc12 (relative stereo)                   1
3             COc1ccc2ccc(=O)oc2c1-c1cocc1C                   3

====

experimentDescription: Cytotoxicity against human U937 cells
Assay type: cell-based, U-937
In this section, each of the compounds is paired with its reported CC50.
quantityKind: CC50 (µg/mL)

> print(dat)
                                   compound  unittext  experimentalresult
1  C=C(C)[C@H]1O[C@@H]1c1c(OC)ccc2ccc(=O)oc12     µg/mL                20.7
2          COc1ccc2ccc(=O)oc2c1C(C=O)=C(C)C     µg/mL                 121
3  C=C(C)[C@H]1O[C@@H]1c1c(OC[C@H]2OC2(C)C)ccc2ccc(=O)oc12 (relative stereo)     µg/mL                 9.7
4             COc1ccc2ccc(=O)oc2c1-c1cocc1C     µg/mL                  33
